- ASSAY INFO: ATG_Oct_MLP_CIS: Attagene CIS-FACTORIAL HepG2 Assay for human Octamer-Binding Transcription Factor (Oct) (AID 2282993)
- CONDITION PARAMETERS: HepG2 Attagene cis-factorial Oct reporter, mRNA; actives raise or lower the signal
Active and inactive are the calls of the source. Rule for the calls: active = hit-call score of the fitted dose curve at least 0.9, where 1 is the maximum; inactive = score below 0.9.
Can you answer with just one of these options? active, inactive

Worked set:
CC(=O)[C@@]1(O)CC[C@H]2[C@@H]3CCC4=CC(=O)CC[C@]4(C)[C@H]3CC[C@@]21C; inactive
COC(=O)[C@H]1[C@H]2C[C@@H]3c4[nH]c5cc(OC)ccc5c4CCN3C[C@H]2C[C@@H](OC(=O)c2cc(OC)c(OC)c(OC)c2)[C@@H]1OC; inactive

# fetch the recorded call for `O=C1NC(=O)C(c2ccccc2)(c2ccccc2)N1` here
inactive

# fetch the recorded call for `Oc1ccc(O)cc1` here
inactive
